- System: P12-Ichikawa
- measurementProtocol: cell viability relative to DMSO control; higher = less cytotoxic
- experimentalConditions: HPLM + 10% dialyzed FBS; 48 h; 0.0211 µM
readout: cell viability (%)
Hi! Could you send only the number? It should be in %, unit omitted.

O=C1NC(O)CCN1[C@@H]1O[C@H](CO)[C@@H](O)[C@H]1O (stereo not given in full) :: 116

# next molecule below
Tell me the measured cell viability of CCCCCCCCCCCCCCCCCCOP(=O)([O-])OC1CC[N+](C)(C)CC1 , please.
113

---

The entries below are paired with their reported cell viability.
- Tested on: SEM cells
- measurementProtocol: cell viability relative to DMSO control; higher = less cytotoxic
- experimentalConditions: RPMI 5 mM glucose + 10% dialyzed FBS; 48 h; 0.0211 µM
Hi! Could you send only the number? It should be in %, unit omitted.

Guide cases for cell viability, answers given:
CN(C)CCN(Cc1ccc(Cl)cc1)c1ccccn1.Cl :: 100
Nc1nc(OCc2ccccc2)c2nc[nH]c2n1 :: 103
N\C1=N\C2=C(N=C[N]2COC(CO)CO)C(=O)N1 :: 108
CN(C)c1ccc(Nc2nc(N)n(C(=O)c3c(F)cccc3F)n2)cc1 :: 76.3

API: value(readout=cell viability, system=SEM cells) for record Cc1ccc(-c2ncn(-c3ccc(Nc4nccc(-c5cccc(N6CCOCC6)c5)n4)cc3)n2)cn1
94.4

---

- System: SEM cells
- measurementProtocol: cell viability relative to DMSO control; higher = less cytotoxic
- experimentalConditions: RPMI 5 mM glucose + 10% FBS; 48 h; 0.569 µM
The entries below are paired with their reported cell viability.
Report the figure along with its unit, number first.

Tell me the measured cell viability of Cc1ccc(-c2ncn(-c3ccc(Nc4nccc(-c5cccc(N6CCOCC6)c5)n4)cc3)n2)cn1 , please.
5.46%

Tell me the measured cell viability of Cc1cc(Cl)ccc1OCCCC(=O)NO , please.
115%

Tell me the measured cell viability of CN(C)c1ccc2cc(C(=O)N[C@@H](CCCNC(=N)CCl)C(=O)NCc3ccccc3)ccc2c1 , please.
120%

Tell me the measured cell viability of O=C(NNC(=O)c1ccc(CN[S+](=O)([O-])c2ccc(F)c(Cl)c2)cc1)c1ccccc1 , please.
102%

Tell me the measured cell viability of COC1=CC2=C(C=C1OC)[C@H]3[C@@H](CO2)OC4=C(C=CC5=C4\C=C/C(C)(C)O5)C3=O , please.
85.4%

Tell me the measured cell viability of COc1cc2ncnc(Nc3cccc(Br)c3)c2cc1OC , please.
113%

Tell me the measured cell viability of Cc1ccc(C(=O)c2cc(O)c(O)c([N+](=O)[O-])c2)cc1 , please.
101%

Tell me the measured cell viability of OCCCNc1cc(-c2ccnc(Nc3cccc(Cl)c3)n2)ccn1 , please.
10.4%

Tell me the measured cell viability of COc1cc(N[S+](=O)([O-])c2ccc(N)cc2)nc(OC)n1 , please.
108%

---

- Tested on: NOMO1
- measurementProtocol: cell viability relative to DMSO control; higher = less cytotoxic
- experimentalConditions: RPMI 5 mM glucose + 10% FBS; 48 h; 1.71 µM
The entries below are paired with their reported cell viability.
Hi! Could you send only the number? It should be in %, unit omitted.

CN(C)C[C@@H]1CC[N]2C=C(C3=C2C=CC=C3)C/4=C(/C(=O)NC4=O)C5=C[N](CCO1)C6=C5C=CC=C6 :: 87.5
CO[C@H]1C[C@@H]2CC[C@@H](C)[C@@](O)(O2)C(=O)C(=O)N2CCCC[C@H]2C(=O)O[C@H]([C@H](C)C[C@@H]2CC[C@@H](OCCO)[C@H](OC)C2)CC(=O)[C@H](C)/C=C(/C)[C@@H](O)[C@@H](OC)C(=O)[C@H](C)C[C@H](C)\C=C/C=C\C=C/1C :: 88
CC(C)(C)c1cc(C(=O)O)c(NC(=O)Nc2ccc3[nH]ncc3c2)s1 :: 83.9
CCNC(=O)[C@H]1O[C@@H](n2cnc3c(N)nc(NCCc4ccc(CCC(=O)O)cc4)nc32)[C@H](O)[C@@H]1O :: 90.6

Tell me the measured cell viability of CC(C)C[C@H](NC(=O)[C@H](Cc1ccccc1)NC(=O)c1cnccn1)B(O)O , please.
1.66

Tell me the measured cell viability of O=C1NC(O)CCN1[C@@H]1O[C@H](CO)[C@@H](O)[C@H]1O (some centres not stated) , please.
105

Tell me the measured cell viability of Cc1cn(CCN2CCN(c3ccccc3-c3cc(C#N)cc(C(=O)NCCCN4CCCC4)c3)CC2)c2ccccc12 , please.
112
